protocol.summary: viability loss with induced miR-34 in A549 – imaging, A549 dox-inducible miR-34, nuclei and caspase counts, primary screen (AID 1347080); further: test concentration not given here
condition.info: A549 miR-34 inducible, Hoechst nuclei count, 48 h; measured here: total cells with miR-34 induction; stronger effect = lower value
Parameter cell count: see the listing below.
quantity: cell count

molecule="Cc1nc(NC(=O)N2CCCC2C(N)=O)sc1-c1csc(C(C)(C)C)n1 (stereo not given)" quantity="cell count" experimental_result=6880
molecule="CCC(C(C)O)n1ncn(-c2ccc(N3CCN(c4ccc(OCC5CO[C@@](Cn6cncn6)(c6ccc(F)cc6F)C5)cc4)CC3)cc2)c1=O (stereo not given in full)" quantity="cell count" experimental_result=4300
molecule=O=C(O)c1cccc2c(-c3ccccc3)c(-c3ccccc3)[nH]c12 quantity="cell count" experimental_result=8700
molecule="COc1cc(C(O)CO)ccc1O (stereo not given)" quantity="cell count" experimental_result=9940
molecule=O=C(O)c1cnn(-c2ccccc2)c1 quantity="cell count" experimental_result=8690
molecule=C=C[C@@]1(C)CC(=O)[C@]2(O)[C@@]3(C)[C@H](O)CCC(C)(C)[C@@H]3[C@H](O)[C@H](OC(C)=O)[C@@]2(C)O1 quantity="cell count" experimental_result=5250
molecule=CC(=O)N[C@@H](CC(=O)N[C@H](CCC(=O)O)C(=O)O)C(=O)O quantity="cell count" experimental_result=9500
molecule=Fc1ccc(C(c2ccc(F)cc2)N2CCN(CC=Cc3ccccc3)CC2)cc1 quantity="cell count" experimental_result=7880
molecule=O=[N+]([O-])c1ccc2[nH]ncc2c1 quantity="cell count" experimental_result=8690
molecule="C=C(C)C1CC[C@]2(C(=O)O)CC[C@]3(C)[C@H](CC[C@@H]4[C@@]5(C)CCC(O)C(C)(C)[C@@H]5CC[C@]43C)[C@@H]12 (stereo not given in full)" quantity="cell count" experimental_result=6780
molecule=CO/N=C(\C(=O)N[C@@H]1C(=O)N2C(C(=O)O)=C(C[N+]3(C)CCCC3)CS[C@H]12)c1csc(N)n1 quantity="cell count" experimental_result=8990
molecule=Cc1cc(C)c(Nc2ccnc(Nc3ccc(C#N)cc3)n2)c(C)c1 quantity="cell count" experimental_result=2390
molecule=O=C(O)c1ccc(N2C(=O)C(=Cc3ccc(-c4ccc([N+](=O)[O-])cc4)o3)C=C2c2ccccc2)cc1 quantity="cell count" experimental_result=7620
molecule="O=[N+]([O-])c1cn2c(n1)OCC(OCc1ccc(OC(F)(F)F)cc1)C2 (stereo not given)" quantity="cell count" experimental_result=6600
molecule=CC[C@@H]1OC(=O)C[C@H](O)[C@@H](C)[C@@H](O[C@@H]2O[C@H](C)[C@@H](O[C@H]3C[C@@](C)(O)[C@@H](O)[C@H](C)O3)[C@H](N(C)C)[C@H]2O)[C@@H](C=O)C[C@@H](C)C(=O)/C=C/C(C)=C\[C@@H]1CO[C@H]1O[C@@H](C)[C@H](O)[C@H](OC)[C@@H]1OC quantity="cell count" experimental_result=9360
molecule=Cc1nc(N=Nc2cc(S(=O)(=O)O)c3cc([N+](=O)[O-])cc(S(=O)(=O)O)c3c2)c(COP(=O)(O)O)c(C=O)c1O quantity="cell count" experimental_result=10500
molecule=NC(=O)C(=O)O quantity="cell count" experimental_result=10900
molecule=O=C(O)Cc1ccc(O)c(O)c1 quantity="cell count" experimental_result=9890
molecule="NC1CCN(O)C1=O (stereo not given)" quantity="cell count" experimental_result=10200
molecule=N[C@H](CCCP(=O)(O)O)C(=O)O quantity="cell count" experimental_result=9420
molecule="CC(CCC(=O)O)[C@@H]1CC[C@H]2[C@@H]3C(O)C[C@@H]4CC(O)CC[C@]4(C)[C@@H]3CC[C@]12C (stereo not given in full)" quantity="cell count" experimental_result=7430
molecule=COc1cc(OC)c(-c2nnc3ccccn23)cc1OC quantity="cell count" experimental_result=9720
molecule=O=C(CC1=CCCCC1)NCc1ccon1 quantity="cell count" experimental_result=9490
molecule=O=S(=O)(c1ccccc1)c1cnc2c(N3CCNCC3)cccc2c1 quantity="cell count" experimental_result=7690
molecule=OCCn1cc(-c2ccc3c(c2)CCC3=NO)c(-c2ccncc2)n1 quantity="cell count" experimental_result=7830
molecule=Cc1nc(NC(=O)NCc2cccc(Cl)c2)nn1C quantity="cell count" experimental_result=8140
molecule=CC(C)NCCCn1c(Sc2cc3c(cc2I)OCO3)nc2c(N)ncnc21 quantity="cell count" experimental_result=2580
molecule=CC/C=C\C/C=C\C/C=C\C/C=C\C/C=C\C/C=C\CCC(=O)O[C@H](COCCCCCCCCCCCCCCCC)COP(=O)([O-])OCC[N+](C)(C)C quantity="cell count" experimental_result=5710
molecule=COc1cccc2c(=O)n(Cc3ccc4nonc4c3)cnc12 quantity="cell count" experimental_result=8180
molecule=O=S(=O)(O)c1cccc2cccc(Nc3ccccc3)c12 quantity="cell count" experimental_result=8990
molecule=CN1CCC(CN(C)Cc2ccc(-c3nc(-c4ccncc4)cc(=O)[nH]3)cc2)CC1 quantity="cell count" experimental_result=9330
molecule="CC1CCC2C(C)C(OC(=O)CCC(=O)O)OC3O[C@@]4(C)CCC1[C@]32OO4 (stereo not given in full)" quantity="cell count" experimental_result=6760
molecule=COc1cc(N=C(N)N=C(N)N)cc(OC)c1 quantity="cell count" experimental_result=8210
molecule=Nc1ccc(CCC(=O)O)cc1 quantity="cell count" experimental_result=9320
molecule="CCCC(=O)O[C@@]1(C(=O)COC(C)=O)CC[C@H]2[C@@H]3CC(F)C4=CC(=O)C=C[C@]4(C)[C@]3(F)C(O)C[C@@]21C (stereo not given in full)" quantity="cell count" experimental_result=5160
molecule=O=C1CN(/N=C/c2ccc(-c3ccc([N+](=O)[O-])cc3)o2)C(=O)N1 quantity="cell count" experimental_result=3600
molecule=O=C(C=Cc1ccc2ccccc2n1)c1ccncc1 quantity="cell count" experimental_result=2580
molecule=NC(=S)NN=Cc1ncccc1N quantity="cell count" experimental_result=1840
molecule="C[N+]1(C)[C@@H]2CC(OC(=O)C(O)(c3cccs3)c3cccs3)C[C@H]1C1OC12 (stereo not given in full)" quantity="cell count" experimental_result=9300
molecule="CC1=C(CC(=O)O)c2cc(F)ccc2/C1=C/c1ccc(S(C)=O)cc1 (stereo not given)" quantity="cell count" experimental_result=9820
